# study target: 14C-HIgG (human)
# method description: secondary screening, batch, HIgG competitive (spiked in MEM)
No end group written: not given here.
# if value of Bound % reaches 10%, tag fulfilled; if it stays below, tag not fulfilled

Determine whether measured Bound % meets or exceeds 10% for HANGFLA-{Toyopearl AF‑Amino‑650 resin}
not fulfilled

Follow-up item: WHWRKRA-{Toyopearl AF‑Amino‑650 resin}
fulfilled

Follow-up item: HYGLGWA-{Toyopearl AF‑Amino‑650 resin}
fulfilled

Follow-up item: HFDKGFA-{Toyopearl AF‑Amino‑650 resin}
not fulfilled

Follow-up item: HEILYWA-{Toyopearl AF‑Amino‑650 resin}
not fulfilled

Follow-up item: YYWLHHA-{Toyopearl AF‑Amino‑650 resin}
fulfilled

Follow-up item: HWRGWVA-{Toyopearl AF‑Amino‑650 resin}
fulfilled
